For each record, write down the corresponding Enzymatic cleavage efficiency %.
TARGET: cathepsin L (Homo sapiens, UniProt P07711)
Sequence (P07711 114-333): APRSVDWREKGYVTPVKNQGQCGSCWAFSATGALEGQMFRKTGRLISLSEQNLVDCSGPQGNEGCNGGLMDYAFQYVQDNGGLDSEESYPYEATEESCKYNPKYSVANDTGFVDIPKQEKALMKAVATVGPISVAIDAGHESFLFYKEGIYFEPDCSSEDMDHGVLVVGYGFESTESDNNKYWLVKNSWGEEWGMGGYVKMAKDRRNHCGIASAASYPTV
ASSAY OVERVIEW: Enzymatic cleavage by cathepsin L, released DXD quantified by HPLC
Assay type: biochemical
*1 amine or outer side, *2 acyl side, *3 side chain or, on linkers, in order; H or OH if unused. Where a SMILES comes first, the peptide text is derived from it. [ ]: non-standard residue; d: D form. The star is where a group is joined. Doxorubicin(3'-N) = COc1cccc2c1C(=O)c1c(O)c3c(c(O)c1C2=O)C[C@@](O)(C(=O)CO)C[C@@H]3O[C@H]1C[C@H](N*)[C@H](O)[C@H](C)O1; Exatecan = CC[C@@]1(O)C(=O)OCc2c1cc1n(c2=O)Cc2c-1nc1cc(F)c(C)c3c1c2[C@@H](N*)CC3; X8 = CCc1c2c(nc3ccc(O)cc13)-c1cc3c(c(=O)n1C2)COC(=O)[C@@]3(CC)OCN*; X5 = CCc1c2c(nc3ccc(OCN*)cc13)-c1cc3c(c(=O)n1C2)COC(=O)[C@]3(O)CC; X1 = O=C(CCCCCOC1O[C@H](CO)[C@H](O)[C@H](O)[C@H]1N[*:1])[*:2]; Hexanoyl(6-maleimido) = O=C1C=CC(=O)N1CCCCCC(=O)*; DBCO = C1#Cc2ccccc2N(*)Cc2ccccc21; NHCH2OCH2CO = O=C(COCN[*:1])[*:2]; X6 = O=C1C=C(Br)C(=O)N1CCC(=O)*; X2 = COCCOCCOCCOCCOCCOCC(=O)*; Suc = O=C(CCC(=O)[*:2])[*:1]; PEG3 = NCCOCCOCCOCCC(=O)O; GABA = NCCCC(=O)O
Answers are plain numbers, in %.

Illustrative cases are given below, each with its answer.
- CCc1c2c(nc3ccc(O)cc13)-c1cc3c(c(=O)n1C2)COC(=O)[C@@]3(CC)OCNC(=O)[C@H](CC(C)C)NC(=O)[C@H](Cc1ccccc1)NC(=O)CNC(=O)CNC(=O)CCCCCN1C(=O)C=CC1=O [S15] ({Hexanoyl(6-maleimido)}-GGFL-X8): 95.1
- COc1cccc2c1C(=O)c1c(O)c3c(c(O)c1C2=O)C[C@@](O)(C(=O)CO)C[C@@H]3O[C@H]1C[C@H](NC(=O)[C@H](CC(C)C)NC(=O)[C@H](Cc2ccccc2)NC(=O)CNC(=O)CNC(=O)CCCCCN2C(=O)C=CC2=O)[C@H](O)[C@H](C)O1 [S1] ({Hexanoyl(6-maleimido)}-GGFL-{Doxorubicin(3'-N)}): 90.5
- CCc1c2c(nc3ccc(OCNC(=O)[C@H](CC(C)C)NC(=O)[C@H](Cc4ccccc4)NC(=O)CNC(=O)CNC(=O)CCCCCN4C(=O)C=CC4=O)cc13)-c1cc3c(c(=O)n1C2)COC(=O)[C@]3(O)CC [S14] ({Hexanoyl(6-maleimido)}-GGFL-X5): 98.0
- CC[C@@]1(O)C(=O)OCc2c1cc1n(c2=O)Cc2c-1nc1cc(F)c(C)c3c1c2[C@@H](NC(=O)CCCNC(=O)[C@H](CC(C)C)NC(=O)[C@H](Cc1ccccc1)NC(=O)CNC(=O)CNC(=O)CCOCCOCCOCCNC(=O)CCC(=O)N1Cc2ccccc2C#Cc2ccccc21)CC3 [S32] ({DBCO-Suc-PEG3}-GGFL[GABA]-Exatecan): 98.0
- CC[C@@]1(O)C(=O)OCc2c1cc1n(c2=O)Cc2c-1nc1cc(F)c(C)c3c1c2[C@@H](NC(=O)COCNC(=O)[C@H](CC(C)C)NC(=O)[C@H](Cc1ccccc1)NC(=O)CNC(=O)CNC(=O)CCCCCOC1O[C@H](CO)[C@H](O)[C@H](O)[C@H]1NC(C)=O)CC3 (some centres unmarked) [S18] (Ac-[X1]GGFL[NHCH2OCH2CO]-Exatecan): 98.3

Record Enzymatic cleavage efficiency % for all entries; do not skip any.
1. CC[C@@]1(O)C(=O)OCc2c1cc1n(c2=O)Cc2c-1nc1cc(F)c(C)c3c1c2[C@@H](NC(=O)COCNC(=O)[C@H](CC(C)C)NC(=O)[C@H](Cc1ccccc1)NC(=O)CNC(=O)CNC(=O)CCCCCN1C(=O)C=CC1=O)CC3 [S6] ({Hexanoyl(6-maleimido)}-GGFL[NHCH2OCH2CO]-Exatecan)
2. CC[C@@]1(O)C(=O)OCc2c1cc1n(c2=O)Cc2c-1nc1cc(F)c(C)c3c1c2[C@@H](NC(=O)[C@H](CC(C)C)NC(=O)[C@H](Cc1ccccc1)NC(=O)CNC(=O)CNC(=O)CCN1C(=O)C=C(Br)C1=O)CC3 [S26] (X6-GGFL-Exatecan)
3. CC[C@@]1(O)C(=O)OCc2c1cc1n(c2=O)Cc2c-1nc1cc(F)c(C)c3c1c2[C@@H](NC(=O)COCNC(=O)[C@H](CC(C)C)NC(=O)[C@H](Cc1ccccc1)NC(=O)CNC(=O)CNC(=O)[C@H](CCCCNC(=O)COCCOCCOCCOCCOCCOC)NC(=O)CCCCCN1C(=O)C=CC1=O)CC3 [S8] ({Hexanoyl(6-maleimido)}-K(X2)GGFL[NHCH2OCH2CO]-Exatecan)

[98.0, 95.1, 98.0]
